experiment.summary: Plasma PK after single oral administration in solution, rhesus monkey
Format: in vivo
condition.label: male, plasma, single oral 4.0 mg/kg, solution in 5% ethanol/20% propylene glycol/45% PEG 300/30% 0.01 N HCl, mean ± SD, n=3
readout: AUC(0-inf) (µM·h)
Just the number in µM·h, nothing appended.

Q) Any idea what its AUC(0-inf) is? The compound is CC(C)(C#Cc1ccc(-c2ccc(Cl)c3c(NS(C)(=O)=O)nn(CC(F)(F)F)c23)c([C@H](Cc2cc(F)cc(F)c2)NC(=O)Cn2nc(C(F)(F)F)c3c2C(F)(F)[C@@H]2C[C@H]32)n1)S(C)(=O)=O
A) 1130

Every entry's value here was drawn from patent US12594267B2.
